System: NCI-H1793 (Lung Adenocarcinoma);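 further: after 72 h of two-drug dosing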
assay.procedure: Bliss excess, mean over the matrix (fraction); higher = more synergy
Parameter Bliss excess: see the listing below.

compound	experimental.target	Bliss excess
CCN(CCO)CCCOc1ccc2c(Nc3cc(CC(=O)Nc4cccc(F)c4)[nH]n3)ncnc2c1 [AZD2811] + C[C@@H]1COCCN1C2=NC(=NC(=C2)C3(CC3)[S@](=N)(=O)C)C4=C5C=CNC5=NC=C4 [AZD6738] (first compound max 1 µM, 7x7, partner max 10 µM)	NCI-H1793 (Lung Adenocarcinoma)	-0.0341
CC1(C)CCC(CN2CCN(c3ccc(C(=O)NS(=O)(=O)c4ccc(NCC5CCOCC5)c([N+](=O)[O-])c4)c(Oc4cnc5[nH]ccc5c4)c3)CC2)=C(c2ccc(Cl)cc2)C1 [Venetoclax] + C[C@@H](Nc1cc(F)cc(F)c1)c1cc(C(=O)N(C)C)cc2c(=O)cc(N3CCOCC3)oc12 [AZD8186] (first compound max 1 µM, 7x7, partner max 3 µM)	NCI-H1793 (Lung Adenocarcinoma)	0.0197
